B1: glmS ribozyme (parent)
chain: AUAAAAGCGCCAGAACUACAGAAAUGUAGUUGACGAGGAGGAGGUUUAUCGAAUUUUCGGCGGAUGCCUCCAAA

Variants of: B1
EXPERIMENTAL DETAILS: self-cleavage kobs at 640 uM GlcN6P; higher = faster cleavage; RNA array
CONDITION NOTES: with glucosamine-6-phosphate
Variants at the floor of the assay were thinned out.
OBSERVED PROPERTY: self-cleavage kobs at 640 uM GlcN6P (s⁻¹)
Numeric only. Scale: s⁻¹

Query: self-cleavage kobs at 640 uM GlcN6P; subject: G32A A39C
6.63e-05

Query: self-cleavage kobs at 640 uM GlcN6P; subject: A12C G26A G51U A53G C68G
0.000191

Query: self-cleavage kobs at 640 uM GlcN6P; subject: A15C U56C
0.000202

Query: self-cleavage kobs at 640 uM GlcN6P; subject: G40U U46A
6.83e-05

Query: self-cleavage kobs at 640 uM GlcN6P; subject: U45C C67U
0.000935
